Recorded pKi for molecules tested on Carbonic anhydrase 1 (Homo sapiens), drawn from a number of studies.
Answers are plain numbers, as −log10 of the molar value.

1. CN(CC(=O)NS(=O)(=O)c1nc2ccc(OCCO)cc2s1)C(=N)N :: 8.05
2. COC(=O)c1cccc(-c2ccc(S(N)(=O)=O)cc2)c1 :: 5.16

For the 4 molecules below, give their pKi values.
1. Cc1cc(-c2ccccc2)cc(C)[n+]1CC(=O)OCCc1ccc(S(N)(=O)=O)cc1
2. CC(=O)OC[C@H]1O[C@@H]([Se]c2ccc(NC(=O)c3ccc(S(N)(=O)=O)cc3)cc2)[C@H](OC(C)=O)[C@@H](OC(C)=O)[C@@H]1OC(C)=O
3. CC/C(=N/Nc1ccc([N+](=O)[O-])cc1)Sc1cc(Cl)c(C)cc1S(N)(=O)=O
4. NS(=O)(=O)c1ccc(-n2ncc(N3CCCCCC3)c(Cl)c2=O)cc1

Reply:
1: 5.96; 2: 7.07; 3: 3.66; 4: 7.01

Query: Value lookup for pKi; key = NCCCN(CCc1ccccc1)CC(=O)N(CCc1ccc(S(N)(=O)=O)cc1)Cc1ccc(F)cc1
Reply: 6.35

###

pKi: −log10 of the molar value.
Recorded pKi for compounds tested on Carbonic anhydrase 1 (Homo sapiens), drawn from a number of studies.

1) CC(=O)c1cc2cc([N+](=O)[O-])c(Cl)cc2oc1=O :: < 5.00
2) CC1(C)O[C@H]2[C@@H](O1)[C@@H](C(=O)NNS(N)(=O)=O)O[C@@H]1OC(C)(C)O[C@@H]12 :: < 4.00
3) CCN(CC)c1ccc(/C=N/Cc2ccc(S(N)(=O)=O)cc2)c(OCc2cn(CCCOc3ccc4ccc(=O)oc4c3)nn2)c1 :: < 5.00

For the 5 compounds below, give their pKi values.
1. CC(C)(C)n1c(=O)cc(-c2cc3ccccc3n2S(=O)(=O)c2ccccc2)[s+]1[O-] (centres undefined)
2. CC(C)(C)OC(=O)N(CCCCN(CCCNC(=O)C(F)(F)F)C(=O)OC(C)(C)C)CCCNC(=O)C(F)(F)F
3. O=S(=O)(NCc1ccccc1)NCc1ccccc1
4. NS(=O)(=O)c1ccc(C/N=C/c2ccccc2OCc2cn(CCCOc3ccc4ccc(=O)oc4c3)nn2)cc1
5. Cc1nn(C)c2nnc(Nc3ccc(S(=O)(=O)N4CCCC4)cc3)nc12

Reply:
["< 5.00", "< 3.30", "< 3.70", "< 5.00", "< 4.30"]

Query: Value lookup for pKi; key = C/C(=N\NC(N)=S)c1nnn(-c2ccc(F)cc2)c1C
Reply: < 4.00

###

pKi: −log10 of the molar value.
Recorded pKi for molecules tested on Carbonic anhydrase 1 (Homo sapiens), drawn from a number of studies.

Worked set:
1) O=C(NO)[C@H]1C[C@H](NS(=O)(=O)c2ccc(-c3ccccc3)cc2)CN1S(=O)(=O)c1ccc(OC(F)(F)F)cc1 :: < 4.00
2) CC(=O)O[C@@H]1C=CC(NS(=O)(=O)NO)O[C@H]1C (some centres not stated) :: < 5.00
3) O=C(Nc1ccc(S(=O)(=O)N2CCC[C@@H]2C(=O)NO)cc1)OCc1ccccc1 :: < 4.00
4) CCCCN(CCCC)S(=O)(=O)N(CCCC)CCCC :: < 3.70
5) O=C(/C=C(\O)C(=O)O)/C=C/c1ccc(NC(=O)c2cccc3ccccc23)cc1 :: < 5.00
6) Nc1nc(-c2ccc(NC(=O)c3ccc(O)cc3)cc2)cn2c(=O)n(-c3ccccc3)nc12 :: < 4.00

Query: Value lookup for pKi; key = O=C(Oc1ccc2oc(=O)ccc2c1)c1ccccc1
Reply: < 5.00

###

Recorded Ki for molecules tested on UniProt P00915, drawn from a number of studies.

1. NS(=O)(=O)c1ccc(C/N=C/c2cc([N+](=O)[O-])ccc2OCc2cn(CCCOc3ccc4ccc(=O)oc4c3)nn2)cc1 :: > 10 µM
2. O=C(NO)[C@H]1C[C@H](n2cc(-c3ccccc3)nn2)CN1S(=O)(=O)c1ccc(Cl)c(Cl)c1 :: > 100 µM
3. COC(=O)C1=Cc2ccc(C)cc2OC(=O)C1 :: > 100 µM
4. CC(=O)O[C@@H]1C=CC(NS(=O)(=O)NO)OC1 (stereo partly specified) :: > 10 µM
5. CCOc1ccc(S(=O)(=O)N2CCNCC2)cc1-c1nnc2c(n1)c(C)nn2C :: > 10 µM

Continue with the molecule presented below.
Query: Value lookup for Ki; key = O=C(CN1C(=O)c2ccccc2S1(=O)=O)c1ccccc1[N+](=O)[O-]
Reply: > 50 µM

###

Recorded pKi for compounds tested on Carbonic anhydrase 1 (Homo sapiens, UniProt P00915), drawn from a number of studies.
Answers are plain numbers, as −log10 of the molar value.

Worked set:
1) NS(=O)(=O)c1ccc(COC(=O)CN(CCN(CC(=O)O)c2ccccc2O)c2ccccc2O)cc1 :: 6.02
2) CC1CCCC2(C1)NC(=O)N(CC(=O)Nc1ccc(S(N)(=O)=O)cc1)C2=O (centres undefined) :: 7.10
3) C[C@]12CC[C@@H]3c4ccc(CS(N)(=O)=O)cc4CC[C@H]3[C@@H]1CCC2=O :: 6.94

Query: Value lookup for pKi; key = Cc1nn(-c2ccc(S(N)(=O)=O)cc2)c(=O)c2ccccc12
Reply: 7.05

###

Recorded Ki for molecules tested on Carbonic anhydrase 1 (Homo sapiens, UniProt P00915), drawn from a number of studies.

1. CCn1cc(S(N)(=O)=O)c2cc(NC(=O)c3cc(Cl)nc(Br)c3)ccc21 :: > 100 µM
2. CC(=O)Oc1ccc2c(c1)OS(=O)(=O)C=C2 :: > 10 µM
3. O=C(Nc1ccc(S(=O)(=O)N2CCC[C@@H]2C(=O)NO)cc1)c1ccc([N+](=O)[O-])cc1 :: > 100 µM

For the 3 molecules below, give their Ki values.
1. Cc1ccc(-c2nn(-c3nc4ccc(S(N)(=O)=O)cc4s3)cc2C#N)cc1
2. O=C(Nc1cccc2c1C(=O)NS2(=O)=O)c1ccc(-c2ccccc2)cc1
3. NS(=O)(=O)c1ccccc1N1C(=O)c2ccc([N+](=O)[O-])cc2C1=O

Reply:
1: > 50 µM; 2: > 50 µM; 3: > 10 µM

For the 2 molecules below, give their Ki values.
1. CCOc1ccc(S(=O)(=O)N2CCN(C)CC2)cc1-c1nnc2c(n1)c(C)nn2C
2. COc1ccc(C(=O)Nc2ccc(-c3cn4c(=O)n(-c5ccccc5)nc4c(N)n3)cc2)cc1

Reply:
["> 10 µM", "> 100 µM"]

###

Recorded pKi for compounds tested on Carbonic anhydrase 1 (Homo sapiens), drawn from a number of studies.
pKi: −log10 of the molar value.
# if value of pKi reaches 7, tag label 1; if it stays below, tag label 0

Take a look at these entries with their results.
1) O=C(Oc1cc2ccc(=O)oc2cc1OC(=O)c1ccccc1)c1ccccc1 :: label 0
2) CCCCCCNS(=O)(=O)NCCC(=O)OC :: label 0
3) NS(=O)(=O)OCc1ccc(-c2ccccc2)cc1 :: label 0
4) NS(=O)(=O)c1ccc(CNc2nc(Cl)nc(NC(Cc3ccc(O)c(O)c3)C(=O)O)n2)cc1 (racemic) :: label 0
5) NS(=O)(=O)c1cc(C(=O)NCCC(=O)N[C@@H](Cc2cnc[nH]2)C(=O)O)ccc1Cl :: label 1

Query: Can COc1ccc(N2CCN(C(=S)SCC(=O)Nc3nc4ccc(S(N)(=O)=O)cc4s3)CC2)cc1 be said to have pKi at or above 7?
Reply: label 0

###

Recorded Ki for compounds tested on Carbonic anhydrase 1 (Homo sapiens), drawn from a number of studies.

Worked set:
1. COc1ccc(-c2nn(-c3nc4ccc(S(N)(=O)=O)cc4s3)cc2/C=N/O)cc1 :: > 50 µM
2. O=Cc1c(OCc2cn(CCCOc3ccc4ccc(=O)oc4c3)nn2)ccc2ccccc12 :: > 10 µM
3. S=c1ccc2ccccc2s1 :: > 100 µM
4. CS(=O)(=O)N1C[C@@H](NS(=O)(=O)c2ccc(-c3ccccc3)cc2)C[C@@H]1C(=O)NO :: > 100 µM
5. Cc1c(-c2nn(-c3ccccc3)cc2/C=N/O)nnn1-c1ccc(Cl)cc1 :: > 100 µM
6. O=S1(=O)C=Cc2cc(-c3ccc(F)cc3)ccc2O1 :: > 10 µM

Continue with the compound presented below.
Query: Value lookup for Ki; key = COc1ccc(S(=O)(=O)N(Cc2ccccc2)C(C)C(=O)NO)cc1 (configuration not stated)
Reply: 0.195 µM

###

Recorded Ki for compounds tested on Carbonic anhydrase 1 (Homo sapiens), drawn from a number of studies.

Worked set:
1. Cc1c(O)ccc2c(-c3ccccc3)cc(=O)oc12 :: > 10 µM
2. COC(=O)c1cccc(-c2ccc3c(c2)C=CS(=O)(=O)O3)c1 :: > 10 µM
3. O=C1c2ccccc2S(=O)(=O)N1Cc1ccccc1F :: > 50 µM

For the 2 compounds below, give their Ki values.
1. CS(=O)(=O)NCCn1ccnc1[N+](=O)[O-]
2. NS(=O)(=O)N(C1CCCCC1)C1CCCCC1

Reply:
["> 20 µM", "> 100 µM"]
